Assayed target: recombinant mouse BCO1 (Mus musculus, UniProt Q9JJS6)
Construct: His-tag; made in house; host or cells: E. coli
Sequence (Q9JJS6 whole entry): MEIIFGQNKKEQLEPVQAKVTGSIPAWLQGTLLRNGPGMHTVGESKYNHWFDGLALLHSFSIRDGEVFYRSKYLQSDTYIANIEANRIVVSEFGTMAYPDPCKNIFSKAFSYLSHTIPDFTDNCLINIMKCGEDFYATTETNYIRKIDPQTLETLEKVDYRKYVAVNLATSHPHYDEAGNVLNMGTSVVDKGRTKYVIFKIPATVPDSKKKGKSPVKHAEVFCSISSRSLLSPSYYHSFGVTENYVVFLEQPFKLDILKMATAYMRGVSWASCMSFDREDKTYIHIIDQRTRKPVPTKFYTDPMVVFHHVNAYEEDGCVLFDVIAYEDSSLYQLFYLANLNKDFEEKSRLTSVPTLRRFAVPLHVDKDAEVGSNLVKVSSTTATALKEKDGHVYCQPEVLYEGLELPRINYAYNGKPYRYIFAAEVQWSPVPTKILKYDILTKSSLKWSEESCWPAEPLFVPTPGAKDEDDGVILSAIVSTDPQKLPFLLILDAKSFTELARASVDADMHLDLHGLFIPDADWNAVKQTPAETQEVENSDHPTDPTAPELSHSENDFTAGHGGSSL
Assay remarks: In vitro inhibition of recombinant mouse BCO1 activity
Type: biochemical
pIC50: −log10 of the molar value.
Quantity name: pIC50

compound="CC1=C(/C=C/C(C)=C/C=C/C(C)=C/C(=O)Nc2ccc(O)cc2)C(C)(C)CCC1=O [3-keto-HPR, 4-oxo-N-(4-hydroxyphenyl)retinamide]" quantity_name=pIC50 numeric_result=5.40

----------
# pEC50 per entry
Assayed target: RARβ (Homo sapiens, UniProt P10826)
Sequence (P10826 183-417 limits assumed): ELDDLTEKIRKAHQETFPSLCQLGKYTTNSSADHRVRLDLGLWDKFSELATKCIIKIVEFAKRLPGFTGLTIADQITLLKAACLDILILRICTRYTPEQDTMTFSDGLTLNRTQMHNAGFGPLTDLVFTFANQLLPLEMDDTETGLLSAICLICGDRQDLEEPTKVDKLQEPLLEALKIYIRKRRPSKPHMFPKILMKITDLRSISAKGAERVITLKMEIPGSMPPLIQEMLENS
Assay remarks: GeneBLAzer RAR-beta DA assay, agonist mode
Format: cell-based
pEC50: −log10 of the molar value.
Quantity name: pEC50

compound="CCOc1ccc(NC(=O)/C=C(C)/C=C/C=C(C)/C=C/C2=C(C)CCCC2(C)C)cc1 [EPR, N-[4-ethoxyphenyl]retinamide]" numeric_result=5.36
compound="CC1=C(/C=C/C(C)=C/C=C/C(C)=C/C(=O)Nc2ccc(O)cc2)C(C)(C)CCC1 [fenretinide, N-[4-hydroxyphenyl]retinamide]" numeric_result=6.25
